In this section, each of the compounds is paired with its reported melting point.
Assay readout: melting point

1. CCOC(=O)c1ncn2c1nc(N1CCOCC1)c1ccccc12 ... 165 °C
2. CC1=CN(c2ccc(Cl)c(Cl)c2)SC1 ... 160 to 161 °C
3. CC(=O)Nc1cc2c(c(C(=O)O)c1)NCCO2 ... 253 °C
4. CC(=O)N1c2ccccc2CC1c1ccccc1NC(=O)C(C)(C)C (stereo not drawn) ... 184 to 186 °C
5. CS(=O)(=O)Nc1cc2occ(C(N)=O)c(=O)c2cc1Oc1ccccc1F ... 249 to 251 °C
6. O=C(CCCCCl)NC1c2ccccc2CSc2ccccc21 (stereo not drawn) ... 155 to 156 °C
7. O=S(=O)(O)c1ccc(Nc2cnnc3cc(Cl)ccc23)cc1 ... > 280 °C
8. CCOC(=O)C1=Cc2cccc(S(N)(=O)=O)c2OCC1 ... 197 to 198 °C
9. Cc1cc(C)nc(NC(=O)NS(=O)(=O)c2cccn2CCC#N)n1 ... 158 to 159 °C
10. Cc1ccccc1N1CCN(CC(O)c2ccc(N3CCCNC3=O)cc2)CC1 (stereo not drawn) ... 234 to 235 °C
11. FCc1ccc(-c2ccc(-c3cn([C@H]4CN5CCC4CC5)nn3)s2)cc1 ... 199 °C
12. CC(=O)Nc1cccc(-c2csc3nc(C45CC6CC(CC(C6)C4)C5)cn23)c1 ... 98 to 100 °C
13. ClCc1cnc2cc(Cl)ccc2c1Cl ... 106 to 107 °C
14. COCc1ccc(-c2csc(-c3ccncc3)n2)c(=O)[nH]1 ... 249 to 254 °C
15. CCn1nc(-c2nc(C#N)c(N)nc2-c2ccccc2)ccc1=O ... > 250 °C
16. Cc1ncc(CO)c(NCc2ccc(-c3ccccc3-c3nnnn3C(c3ccccc3)(c3ccccc3)c3ccccc3)cc2)n1 ... 112 to 114 °C
17. COc1ccc(Sc2ccccc2CC#N)cc1 ... 65 to 67 °C
18. OCc1cccc2cc(Br)ccc12 ... 72 to 75 °C

----------
As shown below, each of these compounds has a reported melting point value.
Assay readout: melting point

1. CCOC(=O)c1cn(-c2ccc([N+](=O)[O-])cn2)cn1 ... 212 to 214 °C
2. CCN(C)c1nc2cccc(C(=O)OC)c2n1Cc1ccc(-c2ccccc2C#N)cc1 ... 66 to 69 °C
3. O=C1CN(c2ccccc2)C(=O)N1S(=O)(=O)c1ccc(Oc2ccccc2)cc1 ... 157 to 158 °C
4. Clc1cc2nnnn2c2cnccc12 ... 176 to 177 °C
5. c1ccc(C(Sc2nnn[nH]2)c2ccccc2)cc1 ... 132 to 134 °C
6. Cc1cc(C(O)(C(F)(F)Cl)C(F)(F)Cl)cc(C)c1O ... 90.5 to 92 °C
7. CN(c1cc(F)c(C#N)cc1F)c1nnnn1-c1ccc(F)cc1 ... 162 °C
8. Cc1nc2cccc(Cl)c2n1-c1ccccc1 ... 103 to 105 °C
9. Cn1nnnc1CC(=O)c1ccccc1N ... 128 to 132 °C
10. CC1CN(c2cc3c(cc2F)c(=O)c(C(=O)O)cn3CCF)CCN1 (stereo unspecified) ... 226 to 227 °C
11. CCOc1ccc(C[N+](=O)[O-])c(C=CC[N+](=O)[O-])c1OCc1ccccc1 ... 89 to 90 °C
12. Brc1ccc2c(c1)/C(=C/CCN1CCCC1)c1cc(Br)ccc1OC2 ... 102 to 103 °C
13. O=C(O)CC1(c2cccc(Cl)c2)CNC(=O)C1 (stereo unspecified) ... 178 to 181 °C
14. CS(=O)(=O)n1cc(C2CCN(S(=O)(=O)N3CCCC[C@@H]3C(=O)NO)CC2)c2cc(C#N)ccc21 ... 143 to 144 °C
15. O=C(CCNC(=O)c1ccccc1)NCCSC(=O)c1ccccc1 ... 154 to 155 °C
16. CC(C)(C)c1ccccc1COc1ccc(N)cn1 ... 147 to 149 °C
